Assay: THP-1 cell cytotoxicity, dose response, cytotoxicity control for Salmonella PhoP regulon inhibitors, S. typhimurium screen hits (AID 2253)
Conditions: THP-1 viability, CellTiter-Glo luminescence, 72 h; series mostly up to 50 µM
The whole screen tested about 2,200 compounds, of which about 1,300 (59%) were called active. So high a share suggests a set chosen from earlier hits. The list is a sample of the results. Potency and affinity values are given separately.
outcome_measure: outcome

{"columns": ["compound", "outcome"],
 "data": [
  ["O=C(OCC1COc2ccccc2O1)c1ccccc1F (centres undefined)", "inactive"],
  ["CN1CCN(c2c(F)cc3c(=O)c(C(=O)O)cn4c3c2SCC4)CC1", "inactive"],
  ["COCCNC(=S)N(Cc1cccnc1)Cc1ccc(OC)c(OC)c1", "inactive"],
  ["O=C(CSC1CCCCC1)Nc1ccccc1Br", "inactive"],
  ["CC(C)CCn1c(SCC(=O)N2CC(=O)Nc3ccccc32)nc2scc(-c3cccs3)c2c1=O", "inactive"]
]}

Can you look up the measured outcome of CC(C)(C)n1ncc2c(=O)n(CC(=O)Nc3ccc4c(c3)OCO4)cnc21 for me? inactive

Please report the recorded outcome for COc1ccc(-c2nnc(SCCC(=O)O)n2-c2ccccc2)cc1 . inactive

Record request: outcome value, item COC(=O)c1cn(C(=O)c2cccs2)c2ccccc12 inactive

outcome for O=C(CCCN1C(=O)CCC1=O)Nc1ccc2c(c1)OCCO2 ? inactive

Requested field: outcome. Item: C/C(Nc1ccc(F)cc1)=C(/C#N)C(N)=O inactive

# input compound: CCCCn1c(NCCO)nc2ccccc21 ; wanted: its outcome inactive

// returns reported outcome for input O=C(Nc1ccccn1)NC1CCCCC1 inactive

Using the record for CC(C)Nc1cc(C(F)(F)F)nc(-c2ccccn2)n1 , report its outcome. inactive

Requested field: outcome. Item: O=C(CSc1ncn[nH]1)Nc1cccc2ccccc12 inactive

Consider the compound shown here: CO[C@@]1(NC(=O)C2SC(=C(C(N)=O)C(=O)O)S2)C(=O)N2C(C(=O)O)=C(CSc3nnnn3C)CS[C@@H]21 (some centres undefined) What is its recorded outcome? inactive

Would you kindly share the measured outcome for CCCCn1cnc2sc(-c3ccccc3)cc2c1=O ? inactive

Entry under review: COC(=O)c1ccccc1NC(=O)CS(=O)(=O)Cc1nc(-c2ccc(C)cc2)oc1C . Reported outcome? inactive

* * *

Test: THP-1 cell cytotoxicity, dose response, cytotoxicity control for Salmonella PhoP regulon inhibitors, S. typhimurium screen hits (AID 2253)
Conditions: THP-1 viability, CellTiter-Glo luminescence, 72 h; series mostly up to 50 µM
About 1,300 (59%) of roughly 2,200 compounds were called active. The set was probably picked from earlier hits. Not all results are given here. Results with a measured potency or affinity are listed apart.
outcome_measure: outcome

{"columns": ["molecule", "outcome"],
 "data": [
  ["Cc1cc(C(C)c2ccccc2)c(O)c(CN2CCOCC2)c1C (configuration not stated)", "inactive"],
  ["CCOC(=O)CCCc1c[nH]c2ccccc12", "inactive"],
  ["COc1ccc(NC(=O)CN2CCCCC2)c([N+](=O)[O-])c1", "inactive"],
  ["O=C1NC(=O)C(=C2CCCCCC2)S1", "inactive"],
  ["CCn1nnc(-c2ccccc2NS(=O)(=O)c2ccc(S(=O)(=O)N3CCCCCC3)cc2)n1", "inactive"],
  ["NC(=O)CCc1c[nH]c2ccccc12", "inactive"]
]}

Requested read-out: outcome. Entry: CCOc1ccc(N/C=C/C(=O)c2ccc(OC)cc2)c([N+](=O)[O-])c1 inactive

# query: outcome of entry CSCC[C@H](NC(=O)Nc1ccc(C)cc1)C(=O)O inactive

I am curious: what outcome value has been reported for Cc1ccc2nc(SCC(=O)c3c(C)[nH]c4ccccc34)[nH]c2c1 ? inactive

Bench note: what outcome did Cc1ccc(CCNC(=O)C2CCN(S(=O)(=O)N3CCCC3)CC2)cc1 show? inactive

# query: outcome of entry CCCCNC(=O)OC1CCS(=O)(=O)C1 (configuration not stated) inactive

Item under review: CCOC(=O)c1[nH]c2ccccc2c1NC(=O)C(C)(C)C . Reported outcome? inactive

* * *

Assay: THP-1 cell cytotoxicity, dose response, cytotoxicity control for Salmonella PhoP regulon inhibitors, S. typhimurium screen hits (AID 2253)
Details: THP-1 viability, CellTiter-Glo luminescence, 72 h; series mostly up to 50 µM
Screen size: about 2,200 compounds; about 1,300 (59%) were called active. The set was probably picked from earlier hits. Not all results are given here. Entries with a potency or affinity are not part of this list.
outcome_measure: outcome

See these solved cases before continuing.
{"columns": ["compound", "value_measured"],
 "data": [
  ["O=C(C1CCN(C2CC(=O)N(Cc3ccccc3)C2=O)CC1)N1CCCCCC1 (configuration not stated)", "inactive"],
  ["Cc1cccnc1NC(=O)CCCN1C(=O)c2ccccc2C1=O", "inactive"],
  ["Cc1ncoc1C(=O)Nc1cccc(Cl)c1", "inactive"],
  ["S=c1[nH]nc(Cc2cccc3ccccc23)o1", "inactive"],
  ["Cc1nnc(NC(=O)CSc2ncnc3scc(-c4ccccc4)c23)s1", "inactive"],
  ["CN1/C(=C/C=N/NC(=O)c2ccc([N+](=O)[O-])cc2)C(C)(C)c2ccccc21", "inactive"]
]}

What value of outcome has been recorded for this entry: O=C(Nc1ccccc1)Oc1ccc[nH]c1=O inactive
